# Target: Muscarinic acetylcholine receptor M3 (Rattus norvegicus)
# Sequence (P08483 whole entry): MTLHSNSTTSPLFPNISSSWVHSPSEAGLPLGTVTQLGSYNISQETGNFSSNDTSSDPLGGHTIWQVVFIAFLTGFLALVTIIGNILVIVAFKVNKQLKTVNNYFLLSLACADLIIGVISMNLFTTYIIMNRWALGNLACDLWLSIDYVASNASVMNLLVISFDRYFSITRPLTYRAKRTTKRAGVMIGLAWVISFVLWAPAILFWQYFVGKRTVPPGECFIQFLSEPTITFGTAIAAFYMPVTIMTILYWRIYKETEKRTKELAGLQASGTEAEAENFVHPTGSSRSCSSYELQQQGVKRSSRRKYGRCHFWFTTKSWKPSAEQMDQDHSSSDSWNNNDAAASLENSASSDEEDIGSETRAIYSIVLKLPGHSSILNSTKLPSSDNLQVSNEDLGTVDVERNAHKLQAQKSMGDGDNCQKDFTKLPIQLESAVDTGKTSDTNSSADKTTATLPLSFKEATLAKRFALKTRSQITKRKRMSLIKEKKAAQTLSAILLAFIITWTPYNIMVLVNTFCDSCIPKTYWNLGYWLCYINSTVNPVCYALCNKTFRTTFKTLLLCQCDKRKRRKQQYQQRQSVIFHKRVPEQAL
# Procedure Text: The compound was tested for the inhibition of binding of [3H]N-Methyl-scopolamine to muscarinic acetylcholine receptor M3 of transfected A9L cells.
# Format: cell-based
pKi: −log10 of the molar value.

# Substance Smiles, pKi
data = [
    ("CN1CCN(CC(=O)N2c3cc(CO[Si](C)(C)C(C)(C)C)ccc3C(=O)Nc3cccnc32)CC1", "< 4.52"),
]

---

# Target: Muscarinic acetylcholine receptor M2 (Rattus norvegicus, UniProt P10980)
# Sequence (P10980 whole entry): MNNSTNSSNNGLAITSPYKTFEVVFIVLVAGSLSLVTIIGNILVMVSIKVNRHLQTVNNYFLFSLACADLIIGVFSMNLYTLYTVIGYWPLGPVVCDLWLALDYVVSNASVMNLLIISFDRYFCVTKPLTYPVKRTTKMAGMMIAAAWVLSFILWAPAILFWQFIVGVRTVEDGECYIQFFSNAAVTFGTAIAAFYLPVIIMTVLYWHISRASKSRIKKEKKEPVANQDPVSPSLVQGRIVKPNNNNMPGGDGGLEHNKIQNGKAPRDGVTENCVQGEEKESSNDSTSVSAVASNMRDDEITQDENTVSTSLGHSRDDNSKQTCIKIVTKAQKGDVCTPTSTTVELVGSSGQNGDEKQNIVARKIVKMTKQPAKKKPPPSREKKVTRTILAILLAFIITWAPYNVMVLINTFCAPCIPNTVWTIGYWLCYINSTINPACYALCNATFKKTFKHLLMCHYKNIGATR
# Procedure Text: Inhibition of binding of [3H]N-methylscopolamine to muscarinic acetylcholine receptor M2 of rat heart tissue membrane.
# Format: tissue-based
pKi: −log10 of the molar value.
compounds and their reported pKi

# Compound, Bound Operator, pKi
measured = [
    ("NCCC(=O)NCCN1CCN(CC(=O)N2c3ccccc3C(=O)Nc3cccnc32)CC1", "=", 5.23),
    ("CN1CCN(CC(=O)N2c3ccc(S(N)(=O)=O)cc3C(=O)Nc3cccnc32)CC1", "<", 4.52),
    ("CSc1ccc2c(c1)C(=O)Nc1cccnc1N2C(=O)CN1CCN(C)CC1", "=", 4.96),
    ("CC(C)(C)OC(=O)NCCNC(=O)c1ccc(CN2CCN(CC(=O)N3c4ccccc4C(=O)Nc4cccnc43)CC2)cc1", "=", 5.60),
    ("Cc1scc2c1N(C(=O)CN1CCN(C)CC1)c1ccccc1NC2=O [TELENZEPINE]", "=", 7.30),
    ("NCCN1CCN(CC(=O)N2c3ccccc3C(=O)Nc3cccnc32)CC1", "=", 5.52),
    ("NCCCCCN1CCN(CC(=O)N2c3ccccc3C(=O)Nc3cccnc32)CC1", "=", 5.23),
    ("CC(C)(C)OC(=O)NCCCCNC(=O)c1ccc(CN2CCN(CC(=O)N3c4ccccc4C(=O)Nc4cccnc43)CC2)cc1", "=", 5.96),
    ("CC(C)(C)OC(=O)NCCCC(=O)NCCN1CCN(CC(=O)N2c3ccccc3C(=O)Nc3cccnc32)CC1", "=", 5.48),
    ("CC(=O)N1CCN(CC(=O)N2c3ccccc3C(=O)Nc3cccnc32)CC1", "<", 4.00),
    ("CC(=O)NCCCC(=O)NCCN1CCN(CC(=O)N2c3ccccc3C(=O)Nc3cccnc32)CC1", "=", 5.05),
    ("CNC(=O)c1ccc(CN2CCN(CC(=O)N3c4ccccc4C(=O)Nc4cccnc43)CC2)cc1", "=", 5.58),
    ("NCCCC(=O)NCCN1CCN(CC(=O)N2c3ccccc3C(=O)Nc3cccnc32)CC1", "=", 5.20),
    ("CC(C)(C)OC(=O)NCCC(=O)NCCN1CCN(CC(=O)N2c3ccccc3C(=O)Nc3cccnc32)CC1", "=", 5.22),
    ("NCCCCCCN1CCN(CC(=O)N2c3ccccc3C(=O)Nc3cccnc32)CC1", "=", 5.87),
    ("NCCCN1CCN(CC(=O)N2c3ccccc3C(=O)Nc3cccnc32)CC1", "=", 5.29),
    ("NCCNC(=O)c1ccc(CN2CCN(CC(=O)N3c4ccccc4C(=O)Nc4cccnc43)CC2)cc1", "=", 6.02),
    ("NCCCCN1CCN(CC(=O)N2c3ccccc3C(=O)Nc3cccnc32)CC1", "=", 5.76),
    ("O=C1Nc2cccnc2N(C(=O)CN2CCN(CCCN3C(=O)c4ccccc4C3=O)CC2)c2ccccc21", "=", 6.08),
    ("O=C1Nc2cccnc2N(C(=O)CN2CCN(CCO)CC2)c2ccccc21", "=", 5.49),
    ("CC(=O)NCCC(=O)NCCN1CCN(CC(=O)N2c3ccccc3C(=O)Nc3cccnc32)CC1", "=", 4.46),
    ("O=C1Nc2cccnc2N(C(=O)CN2CCN(CCCCCN3C(=O)c4ccccc4C3=O)CC2)c2ccccc21", "=", 7.70),
    ("CC(=O)NCCN1CCN(CC(=O)N2c3ccccc3C(=O)Nc3cccnc32)CC1", "=", 5.60),
    ("C#CCN1CCN(CC(=O)N2c3ccccc3C(=O)Nc3cccnc32)CC1", "=", 5.86),
    ("O=C1Nc2cccnc2N(C(=O)CN2CCN(C(=S)Nc3ccccc3)CC2)c2ccccc21", "<", 4.00),
    ("O=C1Nc2cccnc2N(C(=O)CN2CCN(Cc3ccccc3)CC2)c2ccccc21", "=", 6.62),
    ("O=C1Nc2cccnc2N(C(=O)CN2CCN(C(=O)c3ccccc3)CC2)c2ccccc21", "<", 4.00),
    ("CS(=O)(=O)N1CCN(CC(=O)N2c3ccccc3C(=O)Nc3cccnc32)CC1", "<", 4.00),
    ("O=C1Nc2cccnc2N(C(=O)CN2CCN(CCCCN3C(=O)c4ccccc4C3=O)CC2)c2ccccc21", "=", 7.05),
    ("CC(C)(C)OC(=O)NCCCCCCN1CCN(CC(=O)N2c3ccccc3C(=O)Nc3cccnc32)CC1", "=", 7.67),
]

Ref: ChEMBL document CHEMBL1125581
